Literature-derived IC50 for PIP4K2B (Homo sapiens) follows.

Sample records with IC50:
[
  {
    "molecule": "CC(=O)N1CCN(C)c2ncc(Nc3ccc(-c4ccc(C(=O)N(C)C)cc4)cn3)cc21",
    "target-under-test": "PIP4K2B (Homo sapiens)",
    "IC50": "10 to 100 nM"
  },
  {
    "molecule": "CC1Oc2cc(N3CCCC3=O)ccc2-c2cnc(Nc3cncc(NC(=O)Cc4cnc5ccccn45)c3)cc21 (centres unmarked)",
    "target-under-test": "PIP4K2B (Homo sapiens)",
    "IC50": "10 to 100 nM"
  },
  {
    "molecule": "O=C(c1cc2c(-c3cncc(-c4ccc(N5CCCC5=O)cc4)c3)ccnc2[nH]1)N1CCOCC1",
    "target-under-test": "PIP4K2B (Homo sapiens)",
    "IC50": "100 to 1000 nM"
  },
  {
    "molecule": "CCOC(=O)c1cc2c(-c3cncc(-c4ccc(N5CCCC5=O)cc4)c3)ccnc2[nH]1",
    "target-under-test": "PIP4K2B (Homo sapiens)",
    "IC50": "10 to 100 nM"
  },
  {
    "molecule": "Cn1cc(-c2cncc(-c3ccc(N4CCCC4=O)cc3)c2)ccc1=O",
    "target-under-test": "PIP4K2B (Homo sapiens)",
    "IC50": "> 5000 nM"
  },
  {
    "molecule": "COCc1cc(Nc2cnc3c(c2)N2C(=O)CC[C@H]2CO3)ncc1-c1ccc(-c2nocc2C)cc1",
    "target-under-test": "PIP4K2B (Homo sapiens)",
    "IC50": "10 to 100 nM"
  },
  {
    "molecule": "O=C1CCCN1c1ccc(-c2ccc(Nc3cnc4c(c3)OCCO4)nc2)cc1",
    "target-under-test": "PIP4K2B (Homo sapiens)",
    "IC50": "10 to 100 nM"
  }
]

Query for PIP4K2B (Homo sapiens): what IC50 does the record show for `CN(C)C(=O)c1ccc(-c2ccc(Nc3cncc(N)c3)nc2)cc1` ?
> 1000 nM

###

Literature-derived IC50 for PIP4K2B (Homo sapiens, UniProt P78356) follows.

Sample records with IC50:
[
  {
    "molecule": "CC(C)c1[nH]c2ncc(C(=O)N(C)C)cc2c1-c1cncc(-c2ccc(N3CCCC3=O)cc2)c1",
    "target-under-test": "PIP4K2B (Homo sapiens, UniProt P78356)",
    "IC50": "100 to 1000 nM"
  },
  {
    "molecule": "Nc1ncc(-c2cccc3nccn23)cc1-c1ccc(N2CCCC2=O)cn1",
    "target-under-test": "PIP4K2B (Homo sapiens, UniProt P78356)",
    "IC50": "> 5000 nM"
  },
  {
    "molecule": "COc1nc(Nc2cncc(N3CC[C@@H](N(C)C)C3)c2)ncc1-c1ccc(N2CCCC2=O)cc1",
    "target-under-test": "PIP4K2B (Homo sapiens, UniProt P78356)",
    "IC50": "100 to 1000 nM"
  }
]

Query for PIP4K2B (Homo sapiens, UniProt P78356): what IC50 does the record show for `COc1ccc(C(=O)Nc2cncc(Nc3ccc(-c4ccc(C(=O)N(C)C)cc4)cn3)c2)cc1` ?
10 to 100 nM

###

Literature-derived pIC50 for PIP4K2B (Homo sapiens, UniProt P78356) follows.
pIC50: −log10 of the molar value.

Sample records with pIC50:
[
  {
    "molecule": "CN1CCC(c2ccc(-c3ccc(Nc4cnc5c(c4)N4C(=O)CC[C@@H]4CO5)nc3)cc2)C1=O (some centres unmarked)",
    "target-under-test": "PIP4K2B (Homo sapiens, UniProt P78356)",
    "pIC50": "< 6.00"
  },
  {
    "molecule": "COCCC(=O)N1CCN(c2cncc(Nc3cc4c(cn3)-c3cc(F)c(N5CCCC5=O)cc3OC4(C)C)c2)CC1",
    "target-under-test": "PIP4K2B (Homo sapiens, UniProt P78356)",
    "pIC50": "7.00 to 8.00"
  },
  {
    "molecule": "CN(C)C(=O)c1cnc2n[nH]c(-c3cncc(-c4ccc(N5CCCC5=O)cc4)c3)c2c1",
    "target-under-test": "PIP4K2B (Homo sapiens, UniProt P78356)",
    "pIC50": "6.00 to 7.00"
  }
]

Query for PIP4K2B (Homo sapiens, UniProt P78356): what pIC50 does the record show for `CN(C)C(=O)c1cnc2c(c1)c(-c1cncc(-c3ccc(N4CCCC4=O)cc3)c1)nn2C` ?
5.60 to 6.00

Query for PIP4K2B (Homo sapiens, UniProt P78356): what pIC50 does the record show for `CN1CCn2c(cc3c(-c4cncc(-c5ccc(C(=O)N6CCCC6)cc5)c4)ccnc32)C1=O` ?
6.00 to 7.00

Query for PIP4K2B (Homo sapiens, UniProt P78356): what pIC50 does the record show for `CCO[C@H]1C[C@@H]1C(=O)Nc1cncc(Nc2ccc(-c3ccc(N4CCCC4=O)cc3)cn2)c1` ?
7.00 to 8.00

Query for PIP4K2B (Homo sapiens, UniProt P78356): what pIC50 does the record show for `CC(C)n1cncc1-c1ccc(-c2cncc(-c3ccnc4c3cc3n4CCN(C)C3=O)c2)cc1` ?
6.00 to 7.00

###

Literature-derived IC50 for PIP4K2B (Homo sapiens, UniProt P78356) follows.

Sample records with IC50:
[
  {
    "compound": "Cn1c(CNC(=O)c2cc3c(-c4cncc(-c5ccc(N6CCCC6=O)cc5)c4)ccnc3[nH]2)nc2ccccc21",
    "IC50": "100 to 1000 nM"
  },
  {
    "compound": "CCN1CCN(Cc2cncc(Nc3ncc4c(n3)C(C)(C)Oc3cc(N5CCCC5=O)ccc3-4)c2)CC1",
    "IC50": "100 to 1000 nM"
  },
  {
    "compound": "CN1CCn2c(cc3c(-c4cncc(-c5ccc(C(=O)N6CCOCC6)cc5)c4)ccnc32)C1=O",
    "IC50": "100 to 1000 nM"
  },
  {
    "compound": "CC1Oc2cc(N3CCCC3=O)ccc2-c2cnc(Nc3cncc(NC(=O)c4cccc(F)c4)c3)cc21 (stereo not drawn)",
    "IC50": "> 1000 nM"
  },
  {
    "compound": "O=C1NCCN1c1cncc(Nc2ccc(-c3ccc(N4CCCC4=O)c(F)c3)cn2)c1",
    "IC50": "10 to 100 nM"
  }
]

Kindly review the next compound as well.
Query for PIP4K2B (Homo sapiens, UniProt P78356): what IC50 does the record show for `Cn1cnnc1N1CC=C(c2ccc(Nc3cnc4c(c3)N3C(=O)CC[C@H]3CO4)nc2)CC1` ?
10 to 100 nM

###

pIC50: −log10 of the molar value.
Literature-derived pIC50 for PIP4K2B (Homo sapiens, UniProt P78356) follows.

Sample records with pIC50:
[
  {
    "compound": "CN(C)C(=O)c1ccc(-c2ccc(Nc3cncc(NC(=O)CCc4ccc(N)cc4)c3)nc2)cc1",
    "experimental-result": "7.00 to 8.00"
  },
  {
    "compound": "CN(C)C(=O)c1ccc(-c2cc(-c3ccnc4[nH]c(C(=O)NC5CCNC5=O)cc34)cnc2N)nc1 (stereo not drawn)",
    "experimental-result": "7.00 to 8.00"
  },
  {
    "compound": "O=C(Nc1cncc(Nc2ccc(-c3ccc(N4CCCC4=O)cc3)cn2)c1)N1CCNC(C2CC2)C1 (stereo not drawn)",
    "experimental-result": "7.00 to 8.00"
  },
  {
    "compound": "CCN(CC)CCN1CCOc2ncc(Nc3ncc4c(n3)C(C)(C)Oc3cc(N5CCCC5=O)ccc3-4)cc21",
    "experimental-result": "< 6.00"
  },
  {
    "compound": "CCN(CC)CCOC(=O)N1CCOc2ncc(Nc3ncc4c(n3)C(C)(C)Oc3cc(N5CCCC5=O)ccc3-4)cc21",
    "experimental-result": "7.00 to 8.00"
  }
]

Query for PIP4K2B (Homo sapiens, UniProt P78356): what pIC50 does the record show for `CN1CCn2c(cc3c(-c4cncc(-c5ccc(-c6nncn6C6CC(F)(F)C6)cc5)c4)ccnc32)C1=O` ?
6.00 to 7.00

Query for PIP4K2B (Homo sapiens, UniProt P78356): what pIC50 does the record show for `Cc1cccc2[nH]c(CNC(=O)c3cc4c(-c5cncc(-c6ccc(N7CCCC7=O)cc6)c5)ccnc4[nH]3)nc12` ?
7.00 to 8.00

Query for PIP4K2B (Homo sapiens, UniProt P78356): what pIC50 does the record show for `O=C1CCCN1c1ccc2c(c1)OCc1cc(Nc3cnc4c(c3)N(S(=O)(=O)C3CC3)CCO4)ncc1-2` ?
8.00 to 9.00

Query for PIP4K2B (Homo sapiens, UniProt P78356): what pIC50 does the record show for CC1C[C@H]2COc3ncc(Nc4ccc(-c5ccc(N6CCCC6=O)c(F)c5)cn4)cc3N2C1=O (stereo partly drawn) ?
7.00 to 8.00
